Molecular target: human collagen type I (acid soluble, extracted from placenta, Sigma C7774) (human) (UniProt P02452)
Sequence (P02452 162-1218 limits assumed, chain 1 of 2): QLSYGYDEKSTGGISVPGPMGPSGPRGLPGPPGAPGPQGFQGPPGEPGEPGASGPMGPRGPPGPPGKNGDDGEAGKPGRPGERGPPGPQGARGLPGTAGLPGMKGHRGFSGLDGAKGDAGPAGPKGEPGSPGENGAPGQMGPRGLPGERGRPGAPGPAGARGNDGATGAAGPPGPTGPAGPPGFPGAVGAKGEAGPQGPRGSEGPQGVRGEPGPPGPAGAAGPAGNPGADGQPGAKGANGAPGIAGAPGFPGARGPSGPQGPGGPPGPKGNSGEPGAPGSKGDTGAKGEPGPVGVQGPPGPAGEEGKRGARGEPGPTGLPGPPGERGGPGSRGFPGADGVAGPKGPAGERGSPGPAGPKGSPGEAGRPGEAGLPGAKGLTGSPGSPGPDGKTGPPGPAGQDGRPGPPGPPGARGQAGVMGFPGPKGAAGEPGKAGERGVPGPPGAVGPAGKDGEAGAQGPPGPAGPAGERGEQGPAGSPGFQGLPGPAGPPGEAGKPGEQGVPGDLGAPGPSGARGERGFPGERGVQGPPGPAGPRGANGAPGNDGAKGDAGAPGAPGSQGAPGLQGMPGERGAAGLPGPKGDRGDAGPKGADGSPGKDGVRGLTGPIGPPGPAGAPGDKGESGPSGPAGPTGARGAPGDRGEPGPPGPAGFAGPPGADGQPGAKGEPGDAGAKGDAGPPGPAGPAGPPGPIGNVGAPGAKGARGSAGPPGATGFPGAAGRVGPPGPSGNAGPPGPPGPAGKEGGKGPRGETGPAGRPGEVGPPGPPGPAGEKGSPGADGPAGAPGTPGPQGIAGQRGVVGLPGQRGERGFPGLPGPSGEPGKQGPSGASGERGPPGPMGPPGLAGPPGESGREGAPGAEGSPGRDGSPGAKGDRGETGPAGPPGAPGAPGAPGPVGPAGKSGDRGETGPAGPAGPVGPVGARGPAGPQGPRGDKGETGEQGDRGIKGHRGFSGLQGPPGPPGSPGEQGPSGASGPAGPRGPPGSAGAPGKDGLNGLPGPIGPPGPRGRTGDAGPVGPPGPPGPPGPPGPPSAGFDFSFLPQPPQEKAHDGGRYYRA
Sequence (P08123 80-1119 limits assumed, chain 2 of 2, further chain): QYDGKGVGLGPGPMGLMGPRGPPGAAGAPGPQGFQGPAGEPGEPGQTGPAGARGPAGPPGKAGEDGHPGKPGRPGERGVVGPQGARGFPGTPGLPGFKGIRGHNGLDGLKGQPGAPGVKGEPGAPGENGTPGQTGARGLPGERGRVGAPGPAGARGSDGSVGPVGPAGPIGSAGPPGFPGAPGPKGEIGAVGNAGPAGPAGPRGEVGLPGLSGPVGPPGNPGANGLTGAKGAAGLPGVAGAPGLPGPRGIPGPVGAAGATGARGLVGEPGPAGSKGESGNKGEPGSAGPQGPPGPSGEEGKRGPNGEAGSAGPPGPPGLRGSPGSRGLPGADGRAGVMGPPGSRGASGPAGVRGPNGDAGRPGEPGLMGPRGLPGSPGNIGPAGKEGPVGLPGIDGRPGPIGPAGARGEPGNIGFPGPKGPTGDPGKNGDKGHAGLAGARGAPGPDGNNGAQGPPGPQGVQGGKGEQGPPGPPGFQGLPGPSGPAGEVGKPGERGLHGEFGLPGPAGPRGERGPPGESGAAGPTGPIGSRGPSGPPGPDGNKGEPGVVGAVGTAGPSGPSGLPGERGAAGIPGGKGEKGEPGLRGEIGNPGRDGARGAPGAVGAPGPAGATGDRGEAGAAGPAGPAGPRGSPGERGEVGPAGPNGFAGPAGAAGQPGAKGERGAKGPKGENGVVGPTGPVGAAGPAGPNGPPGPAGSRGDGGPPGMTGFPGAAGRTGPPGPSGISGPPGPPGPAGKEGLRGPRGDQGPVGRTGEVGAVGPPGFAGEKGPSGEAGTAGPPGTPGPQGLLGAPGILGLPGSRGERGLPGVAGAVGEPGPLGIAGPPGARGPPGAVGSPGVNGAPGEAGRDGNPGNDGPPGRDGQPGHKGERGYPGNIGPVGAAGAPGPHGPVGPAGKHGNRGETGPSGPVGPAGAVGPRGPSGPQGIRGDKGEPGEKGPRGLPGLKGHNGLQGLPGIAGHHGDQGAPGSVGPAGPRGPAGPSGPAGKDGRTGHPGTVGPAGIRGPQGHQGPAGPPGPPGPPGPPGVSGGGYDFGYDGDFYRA
Assay: dried collagen assay
Bridge positions count the residues as written; N and C are the ends. Ends that are not written are not given here.
Please note: 1 applies when Dried Human Collagen Binding is 6% or greater, and 0 applies otherwise.

INSERT INTO assay_data (binder, class) VALUES
  ('NWKCWGVVKWECIWA (disulfide 4-12; also: C-terminus presumably amidated (Rink amide resin)) [SEQ ID NO: 5]', 1),
  ('GWTCSQPGANVWNCTMQ (disulfide 4-14; not fully specified (C-terminus)) [SEQ ID NO: 85]', 0);

QUERY: Does Dried Human Collagen Binding meet or surpass 6% for VWACRGGTTNWHCDL (disulfide 4-13; also: C-terminus probably amidated (Rink amide resin)) [SEQ ID NO: 41] ?
RESULT: 0

QUERY: Does Dried Human Collagen Binding meet or surpass 6% for GWQCFGASDWHCTWV (disulfide 4-12; not fully specified) [SEQ ID NO: 8] ?
RESULT: 1

QUERY: Does Dried Human Collagen Binding meet or surpass 6% for TWQCSGNQKWSCEWF (disulfide 4-12; also: C-terminus probably amidated (Rink amide resin)) [SEQ ID NO: 6] ?
RESULT: 1

Source listed as patent US20080058636A1.
